Field: Decomposition rates of prodrugs. Provide a value for each of the molecules that follow.
Protocol: Decomposition of prodrugs in mouse plasma in vitro (HPLC of released propofol or other substituted phenol)
Assay type: in vitro ADME
Condition set: 37° C., 10 min
Dear colleague, please return just the value in %, with no unit written.

Sample CC(C)c1cccc(C(C)C)c1OC(=O)COC(=O)CN1CCOCC1 [Compound 23] — what was its Decomposition rates of prodrugs?
100

Moving on to the next molecule: "CC(C)c1cccc(C(C)C)c1OC(=O)COC(=O)CN1CCCCC1"
100

Moving on to the next molecule: "CC(C)c1cccc(C(C)C)c1OC(=O)COC(=O)CN"
100

Moving on to the next molecule: "CC(C)c1cccc(C(C)C)c1OC(=O)COC(=O)CN1CCC1.Cl"
100

Moving on to the next molecule: "CC(C)c1cccc(C(C)C)c1OC(=O)COC(=O)CN1CCCC1.Cl"
100

Moving on to the next molecule: CC(C)c1cccc(C(C)C)c1OC(=O)COC(=O)CN1CCOCC1 [Compound 27]
86

Moving on to the next molecule: "CC(C)c1cccc(C(C)C)c1OC(=O)COC(=O)CN1CCN(C)CC1"
100

Moving on to the next molecule: "CC(C)c1cccc([C@H](C)C2CC2)c1OC(=O)COC(=O)CN1CCOCC1.Cl"
85

---

Field: Decomposition rates of prodrugs. Provide a value for each of the molecules that follow.
Protocol: Decomposition of prodrugs in mouse plasma in vitro (HPLC of released propofol or other substituted phenol)
Type: in vitro ADME
Condition set: 37° C., 5 min
Your reply should be a number followed by the unit it is expressed in.

Sample CC(C)c1cccc(C(C)C)c1OC(=O)COC(=O)CN [Compound 1] — what was its Decomposition rates of prodrugs?
100%

Moving on to the next molecule: CC(C)c1cccc(C(C)C)c1OC(=O)COC(=O)CN(C)C [Compound 3]
80%

Moving on to the next molecule: CNCC(=O)OCC(=O)Oc1c(C(C)C)cccc1C(C)C [Compound 2]
100%

Moving on to the next molecule: CC(C)C[C@@H](N)C(=O)OCC(=O)Oc1c(C(C)C)cccc1C(C)C.Cl [Compound 48]
100%

Moving on to the next molecule: CC(C)c1cccc(C(C)C)c1OC(=O)COC(=O)[C@H](C)N [Compound 4]
100%

Moving on to the next molecule: CC(C)c1cccc(C(C)C)c1OC(=O)COC(=O)CN1CCOCC1 [Compound 22]
80%

Moving on to the next molecule: CC(C)c1cccc([C@H](C)C2CC2)c1OC(=O)COC(=O)CN1CCOCC1.Cl [Compound 17]
78%

Moving on to the next molecule: CC(C)c1cccc(C(C)C)c1OC(=O)COC(=O)CN1CCN(C)CC1 [Compound 7]
100%

Moving on to the next molecule: CC(C)c1cccc(C(C)C)c1OC(=O)COC(=O)CN1CCOCC1 [Compound 23]
100%

---

Field: TI (therapeutic index). Provide a value for each of the compounds that follow.
Tested on: Kunming mice
Protocol: Determination of therapeutic index (ED50 and LD50, up-and-down method)
Type: in vivo, mouse
Condition set: half male and half female
Please give the numeric answer without any surrounding text.

Sample "CC(C)c1cccc(C(C)C)c1OC(=O)COC(=O)CN1CCC1.Cl" — what was its TI (therapeutic index)?
3.9

Moving on to the next compound: CC(C)c1cccc(C(C)C)c1O [Propofol, reference compound]
4.4

Moving on to the next compound: "CC(C)C[C@@H](N)C(=O)OCC(=O)Oc1c(C(C)C)cccc1C(C)C.Cl"
4.1

Moving on to the next compound: "CC(C)c1cccc(C(C)C)c1OC(=O)COC(=O)CN1CCCCC1"
4.1

Moving on to the next compound: CC(C)c1cccc(C(C)C)c1OC(=O)COC(=O)CN1CCOCC1 [Compound 27]
4.5
